Format: in vivo, Sprague-Dawley rats
Measurement conditions: male, Sprague-Dawley, rat, plasma, po, 25 mg/kg
Readout label: k el (s⁻¹)
Just the number in s⁻¹, nothing appended.

In: Request the reported k el associated with CC(=O)O[C@H]1C(=O)[C@@]2(C)[C@H]([C@H](OC(=O)c3ccccc3)[C@]3(O)C[C@H](OC(=O)[C@H](O)[C@@H](NC(=O)c4ccccc4)c4ccccc4)C(C)=C1C3(C)C)[C@]1(OC(C)=O)CO[C@@H]1C[C@@H]2O [PTX, Paclitaxel]
Out: 5.06e-05
